The reported numbers originate from patent US9499519B2.

Target: IGF-1R (Homo sapiens)
Construct: purchased Millipore 14-802
Experiment: In vitro IGF-1R enzymatic assay (ADP-Glo kinase assay)
Assay type: biochemical
Settings: activated IGF-1R, 30 nM, N2; 0.03 µM
Listed below: % Inh @ 30 nM (N2) values for each entry.
QUANTITY NAME: % Inh @ 30 nM (N2) (%)

COMPOUND	TARGET OR SYSTEM	MEASURED RESULT
O=C(Nc1ccc(F)nc1)C1CCCN1c1nc2c(c(Nc3cc(C4CCCC4)[nH]n3)n1)CCCC2 (single isomer, unassigned) [Compound 15b]	IGF-1R (Homo sapiens)	28
O=C(Nc1ccc(F)nc1)C1C(O)CCN1c1nc2c(c(Nc3cc(C4CC4)[nH]n3)n1)CCC2 (single isomer, unassigned) [Compound 11b]	IGF-1R (Homo sapiens)	11
CC(C)c1cc(Nc2nc(N3CCCCC3C(=O)Nc3ccc(F)nc3)nc3c2CCC3)n[nH]1 (single isomer, unassigned) [Compound 16b]	IGF-1R (Homo sapiens)	40
O=C(Nc1ccc(F)nc1)C1CCCN1c1nc2c(c(Nc3cc(C4CCCC4)[nH]n3)n1)CCC2 (single isomer, unassigned) [Compound 4b]	IGF-1R (Homo sapiens)	35

---

Biological target: IGF-1R (Homo sapiens, UniProt P08069)
Construct: purchased Millipore 14-802
Sequence (P08069 31-1367): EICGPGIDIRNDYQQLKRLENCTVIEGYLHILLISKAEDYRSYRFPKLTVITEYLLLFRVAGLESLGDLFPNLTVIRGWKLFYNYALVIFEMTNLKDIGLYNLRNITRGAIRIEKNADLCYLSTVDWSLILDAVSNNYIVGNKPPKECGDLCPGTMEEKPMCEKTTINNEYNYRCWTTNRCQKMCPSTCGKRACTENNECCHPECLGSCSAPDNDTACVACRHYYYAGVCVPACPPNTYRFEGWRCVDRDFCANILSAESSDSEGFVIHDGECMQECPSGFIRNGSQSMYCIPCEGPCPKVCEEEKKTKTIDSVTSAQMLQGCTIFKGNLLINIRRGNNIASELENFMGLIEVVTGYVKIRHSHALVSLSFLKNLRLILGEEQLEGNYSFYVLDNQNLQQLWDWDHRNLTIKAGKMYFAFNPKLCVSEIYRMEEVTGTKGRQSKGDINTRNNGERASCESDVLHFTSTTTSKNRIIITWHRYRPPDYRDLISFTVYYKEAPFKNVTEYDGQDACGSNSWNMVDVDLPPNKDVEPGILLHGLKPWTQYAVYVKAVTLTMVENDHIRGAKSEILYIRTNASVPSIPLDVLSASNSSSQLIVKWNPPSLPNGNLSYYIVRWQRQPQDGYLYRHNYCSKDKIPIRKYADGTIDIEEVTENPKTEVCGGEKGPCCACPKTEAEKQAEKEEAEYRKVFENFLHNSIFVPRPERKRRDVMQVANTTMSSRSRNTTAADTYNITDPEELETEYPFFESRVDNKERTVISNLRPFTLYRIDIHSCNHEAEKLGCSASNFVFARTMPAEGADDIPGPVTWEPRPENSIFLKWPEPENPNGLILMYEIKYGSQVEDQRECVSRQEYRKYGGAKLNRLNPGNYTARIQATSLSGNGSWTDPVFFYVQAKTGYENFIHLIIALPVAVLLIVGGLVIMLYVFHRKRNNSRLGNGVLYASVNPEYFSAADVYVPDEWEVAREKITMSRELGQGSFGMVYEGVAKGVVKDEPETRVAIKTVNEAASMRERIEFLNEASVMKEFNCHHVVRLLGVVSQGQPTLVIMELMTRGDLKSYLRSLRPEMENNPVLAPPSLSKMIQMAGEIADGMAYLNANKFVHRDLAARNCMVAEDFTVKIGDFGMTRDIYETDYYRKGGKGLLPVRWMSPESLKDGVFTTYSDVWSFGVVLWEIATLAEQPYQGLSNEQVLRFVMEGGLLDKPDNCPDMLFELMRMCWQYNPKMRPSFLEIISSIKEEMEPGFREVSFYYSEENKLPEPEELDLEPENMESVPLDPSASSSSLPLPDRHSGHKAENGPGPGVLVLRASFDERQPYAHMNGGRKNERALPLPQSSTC
Experiment: In vitro IGF-1R enzymatic assay (ADP-Glo kinase assay)
Format: biochemical
Details: activated IGF-1R, 30 nM, average; read-out: % Inh @ 30 nM Avg

COMPOUND	inhibition at 0.03 µM
CC(C)c1cc(Nc2nc(N3CCCC3C(=O)N(C)c3ccc(F)nc3)nc3c2CCC3)n[nH]1 (stereo not drawn) [Compound 55a]	13%
CC(C)c1cc(Nc2nc(N3CCCC3C(=O)Nc3ccc(F)nc3)nc3c2CCC3)n[nH]1 (single isomer, unassigned)	94%
CC(C)c1cc(Nc2nc(N3CCCC3C(=O)Nc3ccc(F)nc3)nc3c2CCCC3)n[nH]1 (single isomer, unassigned) [Compound 13b]	81%
CC(C)c1cc(Nc2nc(N3CCC[C@H]3C(=O)Nc3ccc(F)nc3)nc3c2CCC3)n[nH]1 (single isomer, unassigned)	0%
O=C(Nc1ccc(F)nc1)C1CC(O)CN1c1nc2c(c(Nc3cc(C4CC4)[nH]n3)n1)CCC2 (single isomer, unassigned) [Compound 10d]	84%
CC(C)c1cc(Nc2nc(N3CCCC3C(=O)Nc3ccc(F)nc3)nc3c2CCCC3)n[nH]1 (single isomer, unassigned) [Compound 13a]	22%

---

Target: IGF-1R (Homo sapiens, UniProt P08069)
Construct: purchased Millipore 14-802
Experiment: In vitro IGF-1R enzymatic assay (ADP-Glo kinase assay)
Assay type: biochemical
Conditions: activated IGF-1R, 30 nM, N2; read-out: % Inh @ 30 nM (N2)
Documented inhibition at 0.03 µM across a set of compounds

COMPOUND	inhibition at 0.03 µM / %
O=C(Nc1ccc(F)nc1)C1CCCN1c1nc2c(c(Nc3cc(C4CC4)[nH]n3)n1)CCC2 (single isomer, unassigned) [Compound 2b]	88
O=C(Nc1ccc(F)nc1)C1CCCN1c1nc2c(c(Nc3cc(C4CC4)[nH]n3)n1)CCC2 (single isomer, unassigned) [Compound 2a]	18
O=C(Nc1cnccn1)C1CCCN1c1nc2c(c(Nc3cc(C4CC4)[nH]n3)n1)CCC2 (single isomer, unassigned) [Compound 6b]	95
CC(C)c1cc(Nc2nc(N3CCCC3C(=O)Nc3ccc(F)nc3)nc3c2CCCC3)n[nH]1 (single isomer, unassigned) [Compound 13b]	80
CC(C)c1cc(Nc2nc(N3CCCC3C(=O)Nc3ccc(F)nc3)nc3c2CCC3)on1 (racemic) [Compound 12b]	34
CC(C)c1cc(Nc2nc(N3CCCC3C(=O)Nc3ccc(F)nc3)nc3c2CCCC3)n[nH]1 (single isomer, unassigned) [Compound 13a]	34
O=C(Nc1cnccn1)C1CCCN1c1nc2c(c(Nc3cc(C4CC4)[nH]n3)n1)CCC2 (single isomer, unassigned) [Compound 6a]	33

---

Biological target: IR (Homo sapiens)
Sequence (P06213 28-1382): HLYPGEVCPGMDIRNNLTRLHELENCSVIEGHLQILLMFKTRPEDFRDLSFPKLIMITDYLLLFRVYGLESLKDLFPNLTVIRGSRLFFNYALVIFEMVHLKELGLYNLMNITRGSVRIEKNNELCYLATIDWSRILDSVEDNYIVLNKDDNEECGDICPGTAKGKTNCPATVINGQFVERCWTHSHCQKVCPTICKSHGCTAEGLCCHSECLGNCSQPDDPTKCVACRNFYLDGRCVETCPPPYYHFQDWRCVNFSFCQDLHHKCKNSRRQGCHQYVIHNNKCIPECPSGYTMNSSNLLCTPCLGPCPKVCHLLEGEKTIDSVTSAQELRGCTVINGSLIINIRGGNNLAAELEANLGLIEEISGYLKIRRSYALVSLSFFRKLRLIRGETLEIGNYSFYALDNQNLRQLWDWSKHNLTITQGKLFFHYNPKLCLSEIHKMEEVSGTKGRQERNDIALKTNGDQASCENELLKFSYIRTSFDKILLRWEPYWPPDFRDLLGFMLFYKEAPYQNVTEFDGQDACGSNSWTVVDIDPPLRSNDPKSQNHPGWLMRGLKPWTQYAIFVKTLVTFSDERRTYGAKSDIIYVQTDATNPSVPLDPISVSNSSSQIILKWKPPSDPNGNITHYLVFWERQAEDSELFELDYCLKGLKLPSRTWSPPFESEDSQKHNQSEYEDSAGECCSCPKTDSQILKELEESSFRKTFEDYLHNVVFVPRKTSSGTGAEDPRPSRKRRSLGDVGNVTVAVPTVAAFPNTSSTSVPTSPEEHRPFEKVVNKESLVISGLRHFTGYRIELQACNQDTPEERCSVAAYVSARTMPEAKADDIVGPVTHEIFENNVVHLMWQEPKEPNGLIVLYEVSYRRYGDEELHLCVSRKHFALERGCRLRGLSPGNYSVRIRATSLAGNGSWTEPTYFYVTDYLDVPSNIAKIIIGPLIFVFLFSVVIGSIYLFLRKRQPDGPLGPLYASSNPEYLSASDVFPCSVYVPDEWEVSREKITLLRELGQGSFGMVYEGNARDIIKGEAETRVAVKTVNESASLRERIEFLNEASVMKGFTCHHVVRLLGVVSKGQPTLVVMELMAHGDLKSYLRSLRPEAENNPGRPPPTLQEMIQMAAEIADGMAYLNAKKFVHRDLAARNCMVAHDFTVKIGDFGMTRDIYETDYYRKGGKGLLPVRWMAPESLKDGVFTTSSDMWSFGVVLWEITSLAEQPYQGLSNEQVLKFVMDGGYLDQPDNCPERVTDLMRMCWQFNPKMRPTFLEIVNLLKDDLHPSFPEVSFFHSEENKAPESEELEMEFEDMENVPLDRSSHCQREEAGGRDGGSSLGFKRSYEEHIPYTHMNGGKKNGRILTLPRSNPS
Assay: In vitro IR enzymatic assay (ADP-Glo kinase assay)
Details: activated IR
Documented IC50 across a set of molecules
QUANTITY NAME: IC50 (nM)

MOLECULE	MEASURED RESULT
CC(C)c1cc(Nc2nc(N3CCCC3C(=O)Nc3ccc(F)nc3)nc3c2CCC3)n[nH]1 (single isomer, unassigned)	7.1
CC(C)c1cc(Nc2nc(N3CCCC3C(=O)N3CCCCC3)nc3c2CCC3)n[nH]1 (stereo not drawn) [Compound 73b]	1300
O=C(Nc1ccc(F)nc1)C1CC(O)CN1c1nc2c(c(Nc3cc(C4CC4)[nH]n3)n1)CCC2 (racemic) [Compound 10a]	33

---

Target: Trk B (Homo sapiens, UniProt Q16620)
Sequence (Q16620 32-822): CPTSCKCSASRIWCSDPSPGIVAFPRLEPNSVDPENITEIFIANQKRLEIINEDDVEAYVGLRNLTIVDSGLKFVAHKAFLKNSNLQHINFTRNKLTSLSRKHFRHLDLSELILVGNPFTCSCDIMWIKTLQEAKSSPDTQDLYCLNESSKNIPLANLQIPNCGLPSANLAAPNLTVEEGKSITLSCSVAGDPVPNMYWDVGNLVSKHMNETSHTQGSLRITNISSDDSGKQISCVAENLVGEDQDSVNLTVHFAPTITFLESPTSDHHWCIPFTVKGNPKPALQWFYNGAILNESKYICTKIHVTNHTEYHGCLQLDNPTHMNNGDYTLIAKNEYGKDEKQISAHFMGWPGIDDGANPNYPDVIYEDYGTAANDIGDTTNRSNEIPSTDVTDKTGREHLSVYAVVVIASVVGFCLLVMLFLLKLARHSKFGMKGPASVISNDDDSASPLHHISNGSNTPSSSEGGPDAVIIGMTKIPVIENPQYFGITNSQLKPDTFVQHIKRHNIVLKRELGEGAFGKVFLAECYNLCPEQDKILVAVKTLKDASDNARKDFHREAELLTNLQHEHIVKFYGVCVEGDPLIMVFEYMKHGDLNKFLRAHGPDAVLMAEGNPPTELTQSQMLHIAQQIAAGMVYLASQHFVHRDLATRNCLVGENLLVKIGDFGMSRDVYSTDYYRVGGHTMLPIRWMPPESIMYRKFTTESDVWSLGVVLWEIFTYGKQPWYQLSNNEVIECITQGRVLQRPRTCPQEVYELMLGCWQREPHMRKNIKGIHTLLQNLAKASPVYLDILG
Assay: HotSpot kinase assay: Trk B
Assay type: biochemical
Conditions: 100 nM compound, read-out: % Enzyme Inhibition @ 100 nM Trk B
Reported inhibition at 0.1 µM values for the following compounds.

COMPOUND	inhibition at 0.1 µM
CN(C)C(=O)C1CC(O)CN1c1nc2c(c(Nc3cc(C4CCCC4)[nH]n3)n1)CCC2 (stereo not drawn) [Compound 110b]	< 39%
CC(C)c1cc(Nc2nc(N3CC(O)CC3C(=O)N3CCCCC3)nc3c2CCC3)n[nH]1 (stereo not drawn) [Compound 107b]	< 39%
CN(C)C(=O)C1CCCN1c1nc2c(c(Nc3cc(C4CCCC4)[nH]n3)n1)CCC2 (stereo not drawn) [Compound 115a]	> 60%
CN(C)C(=O)C1CCCN1c1nc2c(c(Nc3cc(C4CCCCC4)[nH]n3)n1)CCC2 (stereo not drawn) [Compound 114b]	> 60%
CC(C)c1cc(Nc2nc(N3CCCC3C(=O)N(C)C)nc3c2CCC3)n[nH]1 (single isomer, unassigned) [Compound 20b]	< 39%
CC(C)c1cc(Nc2nc(N3CC(O)CC3C(=O)N(C)C)nc3c2CCC3)n[nH]1 (stereo not drawn) [Compound 109a]	< 39%

---

The molecules listed here are annotated with their Levels of phosphorylated AKT in treated cells (pAKT/actin).
Test system: Akt phosphorylation induced by IGF-1R
Assay: Western blot analysis of Akt phosphorylation induced by IGF-1 in HT-29 cells
Type: cell-based, Human
Details: 1 nM compound, HT-29 cells, IGF-1
QUANTITY NAME: Levels of phosphorylated AKT in treated cells (pAKT/actin)

MOLECULE	TARGET OR SYSTEM	MEASURED RESULT
O=C(Nc1ccc(F)nc1)C1CCCN1c1nc2c(c(Nc3cc(C4CC4)[nH]n3)n1)CCC2 (single isomer, unassigned) [Compound 2b]	Akt phosphorylation induced by IGF-1R	0.80
O=C(Nc1ccc(F)nc1)C1CCCN1c1nc2c(c(Nc3cc(C4CCCC4)[nH]n3)n1)CCCC2 (single isomer, unassigned) [Compound 15a]	Akt phosphorylation induced by IGF-1R	0.89
O=C(Nc1ccc(F)nc1)C1C(O)CCN1c1nc2c(c(Nc3cc(C4CC4)[nH]n3)n1)CCC2 (single isomer, unassigned) [Compound 11b]	Akt phosphorylation induced by IGF-1R	1.76
CC(C)c1cc(Nc2nc(N3CCCCC3C(=O)Nc3ccc(F)nc3)nc3c2CCC3)n[nH]1 (single isomer, unassigned) [Compound 16b]	Akt phosphorylation induced by IGF-1R	0.51
CC(C)c1cc(Nc2nc(N3CCC[C@H]3C(=O)Nc3ccc(F)nc3)nc3c2CCC3)n[nH]1 (single isomer, unassigned) [Compound 8a]	Akt phosphorylation induced by IGF-1R	2.27
CC(C)c1cc(Nc2nc(N3CCCC3C(=O)Nc3ccc(F)nc3)nc3c2CCCC3)n[nH]1 (single isomer, unassigned) [Compound 13b]	Akt phosphorylation induced by IGF-1R	0.09

---

Molecular target: IR (Homo sapiens)
Construct: purchased Millipore 14-803
Assay: In vitro IR enzymatic assay (ADP-Glo kinase assay)
Type: biochemical
Details: activated IR, 30 nM, average; read-out: % Inh @ 30 nM Avg

COMPOUND	inhibition at 0.03 µM, %
O=C(Nc1cnccn1)C1CCCN1c1nc2c(c(Nc3cc(C4CC4)[nH]n3)n1)CCC2 (single isomer, unassigned) [Compound 6b]	92
O=C(Nc1cnccn1)C1CCCN1c1nc2c(c(Nc3cc(C4CC4)[nH]n3)n1)CCC2 (single isomer, unassigned) [Compound 6a]	-2
CC(C)c1cc(Nc2nc(N3CCC[C@@H]3C(=O)Nc3ccc(F)nc3)nc3c2CCC3)on1 (single isomer, unassigned) [Compound 12a]	9
CC(C)c1cc(Nc2nc(N3CCCC3C(=O)Nc3ccc(F)nc3)nc3c2CCCC3)n[nH]1 (single isomer, unassigned) [Compound 13b]	82
O=C(Nc1ccc(F)nc1)C1CC(O)CN1c1nc2c(c(Nc3cc(C4CC4)[nH]n3)n1)CCC2 (racemic) [Compound 10a]	54
CC(C)c1cc(Nc2nc(N3CCCC3C(=O)N(C)c3ccc(F)nc3)nc3c2CCC3)n[nH]1 (stereo not drawn) [Compound 55a]	8
O=C(Nc1ccc(F)nc1)C1CCCN1c1nc2c(c(Nc3cc(C4CC4)[nH]n3)n1)CCC2 (single isomer, unassigned) [Compound 2a]	5
CC(C)c1cc(Nc2nc(N3CCCC3C(=O)Nc3ccc(F)nc3)nc3c2CCC3)on1 (racemic) [Compound 12b]	-12
O=C(Nc1ccc(F)nc1)C1CCCN1c1nc2c(c(Nc3cc(C4CC4)[nH]n3)n1)CCC2 (single isomer, unassigned) [Compound 2b]	90
CC(C)c1cc(Nc2nc(N3CC(O)CC3C(=O)Nc3ccc(F)nc3)nc3c2CCC3)n[nH]1 (racemic) [Compound 70]	60
O=C(Nc1ccc(F)nc1)C1CC(O)CN1c1nc2c(c(Nc3cc(C4CC4)[nH]n3)n1)CCC2 (single isomer, unassigned) [Compound 10d]	85
CC(C)c1cc(Nc2nc(N3CCCC3C(=O)Nc3ccc(F)nc3)nc3c2CCCC3)n[nH]1 (single isomer, unassigned) [Compound 13a]	2
